Ref: patent US7956077B2

- Tested On: human PPARalpha (Homo sapiens, UniProt Q07869)
- Construct: human PPARalpha receptor (amino acids S167-Y468)
- Sequence (Q07869 167-468): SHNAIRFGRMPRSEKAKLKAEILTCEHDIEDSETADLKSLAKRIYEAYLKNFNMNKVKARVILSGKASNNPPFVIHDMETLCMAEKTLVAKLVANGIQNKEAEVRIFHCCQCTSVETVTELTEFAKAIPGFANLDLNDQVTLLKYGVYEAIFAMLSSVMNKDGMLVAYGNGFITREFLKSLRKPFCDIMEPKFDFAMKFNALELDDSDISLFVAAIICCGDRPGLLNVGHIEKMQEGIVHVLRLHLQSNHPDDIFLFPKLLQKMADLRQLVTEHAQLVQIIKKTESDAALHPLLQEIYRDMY
- Method: Cellular PPARalpha assay (stably transfected HEK luciferase reporter cell line)
- Condition: PPARalpha reporter cell line (HEK, GR-GAL4-humanPPARalpha-LBD), 24 h incubation
pEC50: −log10 of the molar value.
Documented pEC50 across a set of compounds
Quantity Kind: pEC50

[[record]]
compound = "CCc1oc(-c2ccc(C(C)C)cc2)nc1CO[C@H]1CCC[C@@H](COC(C)(Cc2ccccc2)C(=O)O)C1 (mixture of isomers) [Example 20]"
meas_value = 9.27

[[record]]
compound = "CCc1oc(-c2ccc(CC(C)C)cc2)nc1CO[C@H]1CCC[C@@H](COC(C)(Cc2ccccc2)C(=O)O)C1 (mixture of isomers) [Example 18]"
meas_value = 8.59

[[record]]
compound = "COc1cccc(-c2nc(CO[C@H]3CCC[C@@H](COC(C)(C)C(=O)O)C3)c(C(C)C)o2)c1 [Example 9]"
meas_value = 6.49


---

- Tested On: human PPARgamma (Homo sapiens, UniProt P37231)
- Construct: human PPARgamma receptor (amino acids 1152-Y475)
- Method: Cellular PPARgamma assay (transiently transfected HEK cells, luciferase reporter)
- Condition: HEK cells transiently transfected with GAL4-humanPPARgammaLBD, 48 h incubation
Documented EC50 across a set of compounds
Quantity Kind: EC50 (nM)

[[record]]
compound = "Cc1ccc(-c2nc(CO[C@H]3CCC[C@@H](COC(C)(C)C(=O)O)C3)c(C)o2)cc1"
value_relation_sign = ">"
meas_value = 10000

[[record]]
compound = "CCc1oc(-c2ccc(C(C)C)cc2)nc1CO[C@H]1CCC[C@@H](COC(C)(Cc2ccccc2)C(=O)O)C1 (mixture of isomers)"
value_relation_sign = "="
meas_value = 170

[[record]]
compound = "CCc1oc(-c2ccc(CC(C)C)cc2)nc1CO[C@H]1CCC[C@@H](COC(C)(Cc2ccccc2)C(=O)O)C1 (mixture of isomers)"
value_relation_sign = "="
meas_value = 150

[[record]]
compound = "COc1cccc(-c2nc(CO[C@H]3CCC[C@@H](COC(C)(C)C(=O)O)C3)c(C(C)C)o2)c1"
value_relation_sign = "="
meas_value = 390

[[record]]
compound = "Cc1oc(-c2ccc(F)cc2)nc1COC1CCCC(COC(C)(C)C(=O)O)C1 (stereo not drawn)"
value_relation_sign = ">"
meas_value = 10000

[[record]]
compound = "CCc1oc(-c2cccc(OC)c2)nc1CO[C@H]1CCC[C@@H](COC(C)(Cc2ccccc2)C(=O)O)C1 (mixture of isomers)"
value_relation_sign = "="
meas_value = 400


---

- Tested On: human PPARalpha (Homo sapiens, UniProt Q07869)
- Construct: human PPARalpha receptor (amino acids S167-Y468)
- Method: Cellular PPARalpha assay (stably transfected HEK luciferase reporter cell line)
- Condition: PPARalpha reporter cell line (HEK, GR-GAL4-humanPPARalpha-LBD), 24 h incubation
pEC50: −log10 of the molar value.
Please use satisfied whenever pEC50 is not below 9, and not satisfied whenever it is.

[[record]]
compound = "CCCC(C)(OC[C@@H]1CCC[C@H](OCc2nc(-c3ccc4ccccc4c3)oc2C)C1)C(=O)O (mixture of isomers)"
tested_on = "human PPARalpha (Homo sapiens, UniProt Q07869)"
classification = "satisfied"

[[record]]
compound = "CCCC(C)(OC[C@@H]1CCC[C@H](OCc2nc(-c3ccc4ccccc4c3)oc2CC)C1)C(=O)O (mixture of isomers)"
tested_on = "human PPARalpha (Homo sapiens, UniProt Q07869)"
classification = "not satisfied"

[[record]]
compound = "CCCC(C)(OC[C@@H]1CCC[C@H](OCc2nc(-c3ccc(CC(C)C)cc3)oc2CC)C1)C(=O)O (mixture of isomers)"
tested_on = "human PPARalpha (Homo sapiens, UniProt Q07869)"
classification = "not satisfied"

[[record]]
compound = "Cc1oc(-c2ccc3ccccc3c2)nc1CO[C@H]1CCC[C@@H](COC(C)(Cc2ccccc2)C(=O)O)C1 (mixture of isomers)"
tested_on = "human PPARalpha (Homo sapiens, UniProt Q07869)"
classification = "not satisfied"

[[record]]
compound = "CCc1oc(-c2cccc(OC)c2)nc1CO[C@H]1CCC[C@@H](COC(C)(Cc2ccccc2)C(=O)O)C1 (mixture of isomers)"
tested_on = "human PPARalpha (Homo sapiens, UniProt Q07869)"
classification = "not satisfied"


---

- Tested On: human PPARgamma (Homo sapiens)
- Construct: human PPARgamma receptor (amino acids 1152-Y475)
- Sequence (P37231 182-477 isoform P37231-2 limits assumed): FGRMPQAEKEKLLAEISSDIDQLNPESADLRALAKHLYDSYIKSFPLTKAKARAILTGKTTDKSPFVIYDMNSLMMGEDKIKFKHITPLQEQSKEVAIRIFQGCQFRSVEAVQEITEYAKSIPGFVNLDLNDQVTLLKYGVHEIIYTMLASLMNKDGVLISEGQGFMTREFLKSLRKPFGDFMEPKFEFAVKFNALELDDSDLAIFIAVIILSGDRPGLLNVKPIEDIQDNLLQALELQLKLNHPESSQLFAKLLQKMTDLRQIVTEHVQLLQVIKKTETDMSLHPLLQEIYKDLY
- Method: Cellular PPARgamma assay (transiently transfected HEK cells, luciferase reporter)
- Condition: HEK cells transiently transfected with GAL4-humanPPARgammaLBD, 48 h incubation
- Text: Determination of EC50 Values of PPAR Agonists in the Cellular PPARgamma Assay A transient transfection system is employed to determine the cellular PPARgamma activity of PPAR agonists. […] In the presence of a PPARgamma-active ligand, the activated usion protein GAL4-humanPPARgammaLBD induces expression of the luciferase reporter gene, which can be detected in the form of a chemiluminescence signal after addition of a luciferase substrate. […]
pEC50: −log10 of the molar value.
Documented pEC50 across a set of compounds
Quantity Kind: pEC50

[[record]]
compound = "CCc1oc(-c2ccc(C)cc2)nc1CO[C@H]1CCC[C@@H](COC(C)(C)C(=O)O)C1"
tested_on = "human PPARgamma (Homo sapiens)"
meas_value = 5.54

[[record]]
compound = "CCc1oc(-c2ccc3ccccc3c2)nc1CO[C@H]1CCC[C@@H](COC(C)(C)C(=O)O)C1"
tested_on = "human PPARgamma (Homo sapiens)"
meas_value = 5.96

[[record]]
compound = "CCc1oc(-c2cccc(C(F)(F)F)c2)nc1CO[C@H]1CCC[C@@H](COC(C)(C)C(=O)O)C1"
tested_on = "human PPARgamma (Homo sapiens)"
meas_value = 5.82

[[record]]
compound = "CCc1oc(-c2cccc(OC)c2)nc1CO[C@H]1CCC[C@@H](COC(C)(C)C(=O)O)C1"
tested_on = "human PPARgamma (Homo sapiens)"
meas_value = 6.03

[[record]]
compound = "CCc1oc(-c2ccc(CC(C)C)cc2)nc1CO[C@H]1CCC[C@@H](COC(C)(C)C(=O)O)C1"
tested_on = "human PPARgamma (Homo sapiens)"
meas_value = 6.17

[[record]]
compound = "CCCC(C)(OC[C@@H]1CCC[C@H](OCc2nc(-c3ccc4ccccc4c3)oc2CC)C1)C(=O)O (mixture of isomers)"
tested_on = "human PPARgamma (Homo sapiens)"
meas_value = 6.89

[[record]]
compound = "CCc1oc(-c2ccc3ccccc3c2)nc1CO[C@H]1CCC[C@@H](COC(C)(Cc2ccccc2)C(=O)O)C1 (mixture of isomers)"
tested_on = "human PPARgamma (Homo sapiens)"
meas_value = 6.27

[[record]]
compound = "Cc1oc(-c2ccc3ccccc3c2)nc1CO[C@H]1CCC[C@@H](COC(C)(Cc2ccccc2)C(=O)O)C1 (mixture of isomers)"
tested_on = "human PPARgamma (Homo sapiens)"
meas_value = 6.22

[[record]]
compound = "CCc1oc(-c2ccc(C)cc2)nc1CO[C@H]1CCC[C@@H](COC(C)(Cc2ccccc2)C(=O)O)C1 (mixture of isomers)"
tested_on = "human PPARgamma (Homo sapiens)"
meas_value = 6.29

[[record]]
compound = "CCCC(C)(OC[C@@H]1CCC[C@H](OCc2nc(-c3ccc(C)cc3)oc2CC)C1)C(=O)O (mixture of isomers)"
tested_on = "human PPARgamma (Homo sapiens)"
meas_value = 6.06

[[record]]
compound = "CCCC(C)(OC[C@@H]1CCC[C@H](OCc2nc(-c3cccc(OC)c3)oc2CC)C1)C(=O)O (mixture of isomers)"
tested_on = "human PPARgamma (Homo sapiens)"
meas_value = 6.89

[[record]]
compound = "CCCC(C)(OC[C@@H]1CCC[C@H](OCc2nc(-c3ccc(CC(C)C)cc3)oc2CC)C1)C(=O)O (mixture of isomers)"
tested_on = "human PPARgamma (Homo sapiens)"
meas_value = 7.12

[[record]]
compound = "CCCC(C)(OC[C@@H]1CCC[C@H](OCc2nc(-c3ccc4ccccc4c3)oc2C)C1)C(=O)O (mixture of isomers)"
tested_on = "human PPARgamma (Homo sapiens)"
meas_value = 6.80

[[record]]
compound = "Cc1oc(-c2ccc3ccccc3c2)nc1CO[C@H]1CCC[C@@H](COC(C)(C)C(=O)O)C1"
tested_on = "human PPARgamma (Homo sapiens)"
meas_value = 5.59

